The measured values listed here are drawn from patent US20190338002A1.

Target: T1, human beta CGRP (SEQ ID NO: 81) (human, not fully specified)
T1 construct: also called human βCGRP; hβCGRP
T1 peptide: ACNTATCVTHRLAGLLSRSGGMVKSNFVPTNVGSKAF
Assay: SPR, 37 C, mutein captured, CGRP analyte
Assign koff to each entry below.
Respond with the bare value in s⁻¹.

Looking up lipocalin mutein SEQ ID NO: 13 (designed binder, biotinylated by NHS chemistry for capture in SPR) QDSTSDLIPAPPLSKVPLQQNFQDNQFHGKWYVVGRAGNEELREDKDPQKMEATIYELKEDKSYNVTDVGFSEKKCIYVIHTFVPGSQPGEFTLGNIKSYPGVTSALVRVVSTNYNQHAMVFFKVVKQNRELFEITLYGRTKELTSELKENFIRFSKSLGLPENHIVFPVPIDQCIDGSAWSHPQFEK , I see its koff listed as 0.000366

Looking up lipocalin mutein SEQ ID NO: 11 (designed binder, biotinylated by NHS chemistry for capture in SPR) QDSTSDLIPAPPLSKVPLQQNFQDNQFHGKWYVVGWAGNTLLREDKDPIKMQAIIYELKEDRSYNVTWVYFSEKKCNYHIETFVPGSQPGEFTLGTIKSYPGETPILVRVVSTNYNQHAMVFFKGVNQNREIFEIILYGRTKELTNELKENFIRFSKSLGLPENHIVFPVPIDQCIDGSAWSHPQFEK , I see its koff listed as 5.63e-05
